Literature-derived pKi for Sodium-dependent serotonin transporter (Homo sapiens, UniProt P31645) follows.
pKi: −log10 of the molar value.
outcome measure: pKi

* CCc1ccc(Oc2nc(C)ccc2OC[C@H]2CCCNC2)c(OC)c1 | 6.74
* COc1ccc(-c2ccccc2CO[C@H]2CCNC2)cc1F | 6.37
* Cc1ccc(C2CN(C)Cc3cc(OCCCN4CCC(F)CC4)ccc32)cc1 (stereo not drawn) | 7.82
* COc1ccc([C@@H]2CN3CCC[C@@H]3c3cc(OCCCN4CCOCC4)ccc32)cc1 | 8.40

* * *

pKi: −log10 of the molar value.
Collected literature values of pKi measured for Sodium-dependent serotonin transporter (Homo sapiens).
Outcome: criterion met for pKi of at least 8; criterion not met for anything lower.

* Fc1ccc(-c2cccc(Cl)c2)c(CO[C@H]2CCNC2)c1 | criterion not met
* CNCc1cc(C#CCCN2CCOCC2)ccc1Oc1ccc(Cl)c(Cl)c1 | criterion met
* c1ccc(COc2ccccc2-c2ccccc2CO[C@H]2CCNC2)cc1 | criterion not met
* OCc1cccc(-c2ccc(F)cc2CO[C@H]2CCNC2)c1 | criterion not met
* CCOc1ccccc1OC[C@H]1CCCNC1 | criterion not met
* Fc1ccc(Oc2ncccc2OC[C@H]2CCCNC2)c(Cl)c1.O=C(O)/C=C/C(=O)O | criterion not met
